// data source = ChEMBL document CHEMBL1961873

- Assayed system: Vascular endothelial growth factor receptor 1 (Homo sapiens) (UniProt P17948);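 note: values are mean percent inhibition of FLT1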
- Sequence (P17948 whole entry): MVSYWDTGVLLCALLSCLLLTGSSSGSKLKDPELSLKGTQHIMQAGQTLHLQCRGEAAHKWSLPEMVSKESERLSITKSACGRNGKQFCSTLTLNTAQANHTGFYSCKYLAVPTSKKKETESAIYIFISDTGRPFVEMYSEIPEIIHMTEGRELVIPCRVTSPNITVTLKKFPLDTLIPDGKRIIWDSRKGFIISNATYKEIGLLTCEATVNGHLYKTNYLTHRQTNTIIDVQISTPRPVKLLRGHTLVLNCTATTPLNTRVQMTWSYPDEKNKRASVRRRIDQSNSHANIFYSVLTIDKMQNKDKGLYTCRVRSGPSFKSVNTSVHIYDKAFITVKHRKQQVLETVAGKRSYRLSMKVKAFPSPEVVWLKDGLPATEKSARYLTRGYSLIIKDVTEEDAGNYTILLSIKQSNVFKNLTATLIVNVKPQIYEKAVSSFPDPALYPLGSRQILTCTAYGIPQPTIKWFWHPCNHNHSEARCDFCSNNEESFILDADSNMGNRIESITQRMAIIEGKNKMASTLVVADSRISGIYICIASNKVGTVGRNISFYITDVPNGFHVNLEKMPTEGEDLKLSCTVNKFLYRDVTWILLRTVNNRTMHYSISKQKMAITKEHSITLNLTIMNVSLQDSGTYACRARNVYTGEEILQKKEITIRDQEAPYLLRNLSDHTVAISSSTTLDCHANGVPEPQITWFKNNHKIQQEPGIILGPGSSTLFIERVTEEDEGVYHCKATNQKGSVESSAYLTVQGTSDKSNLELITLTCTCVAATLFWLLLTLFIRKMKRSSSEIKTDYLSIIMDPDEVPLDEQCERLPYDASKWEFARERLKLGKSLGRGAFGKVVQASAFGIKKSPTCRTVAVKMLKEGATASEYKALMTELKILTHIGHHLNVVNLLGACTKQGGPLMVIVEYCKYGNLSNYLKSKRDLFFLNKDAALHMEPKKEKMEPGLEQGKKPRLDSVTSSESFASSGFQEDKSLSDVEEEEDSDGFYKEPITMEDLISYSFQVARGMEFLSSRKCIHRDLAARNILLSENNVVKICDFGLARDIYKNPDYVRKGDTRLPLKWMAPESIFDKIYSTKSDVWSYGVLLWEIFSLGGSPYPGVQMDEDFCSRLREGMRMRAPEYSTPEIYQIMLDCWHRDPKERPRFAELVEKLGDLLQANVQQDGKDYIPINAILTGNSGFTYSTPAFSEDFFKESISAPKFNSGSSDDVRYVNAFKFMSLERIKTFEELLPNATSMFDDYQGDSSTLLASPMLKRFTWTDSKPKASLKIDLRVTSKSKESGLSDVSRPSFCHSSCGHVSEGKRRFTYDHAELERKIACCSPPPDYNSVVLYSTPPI
- Study conditions: at 0.1 µM
Catalogue of inhibition values

Structure as smiles	inhibition, %
N#Cc1ccc(Oc2nccc(-c3c(-c4ccc(F)cc4)ncn3C3CCNCC3)n2)cc1	-0.44
O=C1NC(=O)C(c2cccc(Cl)c2)=C1Nc1ccc(Cl)c(C(=O)O)c1	2.61
C#Cc1cccc(Nc2ncnc3ccc(OCCCCNCCS(C)(=O)=O)cc23)c1	2.51
COc1ccc(-c2ccc3c(NC(=O)C4CC4)n[nH]c3n2)cc1	-0.58
CCC(=O)Nc1ccc(C)c(-c2ccc(C(=O)NCC3CC3)cc2)c1	0.67
COc1cc(Nc2ncc3c(C)nc(-c4cccc(C(F)(F)F)c4)n3n2)cc(OC)c1OC	2.19
COc1ccc2ncn(-c3cc(O[C@H](C)c4ccccc4Cl)c(C(N)=O)s3)c2c1	0.27
NC(=O)Cc1ccccc1Oc1nccc(-c2c(-c3ccc(F)cc3)ncn2C2CCNCC2)n1	0.07
COc1cc(Nc2ncc(-c3ccccc3)o2)cc(OC)c1OC	8.63
Fc1ccc(-c2ncn(C3CCNCC3)c2-c2ccnc(Oc3ccc4c(c3)OCO4)n2)cc1	0.92

====

- Assayed system: SRSF protein kinase 3 (Homo sapiens) (UniProt Q9UPE1);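 note: values are mean inhibition of MSSK1 (alias of SRPK3)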
- Sequence (Q9UPE1 whole entry): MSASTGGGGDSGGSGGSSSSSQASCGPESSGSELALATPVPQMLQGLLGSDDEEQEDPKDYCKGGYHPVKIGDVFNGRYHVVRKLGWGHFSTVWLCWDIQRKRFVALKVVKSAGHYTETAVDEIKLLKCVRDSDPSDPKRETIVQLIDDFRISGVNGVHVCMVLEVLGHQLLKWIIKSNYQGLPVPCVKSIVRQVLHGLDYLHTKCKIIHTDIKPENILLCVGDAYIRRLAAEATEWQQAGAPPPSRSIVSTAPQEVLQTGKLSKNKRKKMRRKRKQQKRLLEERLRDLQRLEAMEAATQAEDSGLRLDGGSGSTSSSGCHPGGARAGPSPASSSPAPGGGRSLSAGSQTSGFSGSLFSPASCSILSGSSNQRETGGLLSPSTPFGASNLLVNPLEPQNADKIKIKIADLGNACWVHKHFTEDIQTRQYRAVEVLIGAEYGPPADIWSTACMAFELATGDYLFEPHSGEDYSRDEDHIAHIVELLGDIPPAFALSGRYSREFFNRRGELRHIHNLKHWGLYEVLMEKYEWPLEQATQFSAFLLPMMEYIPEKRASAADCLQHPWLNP
- Study conditions: at 1 µM
Let's look at some compounds and their measured inhibition.

Structure as smiles	inhibition [%]
Cc1ccc(NC(=O)c2ccoc2)cc1-c1ccc(C(=O)NCC2CC2)cc1	-1.92
COC(=O)Nc1nc2ccc(Sc3ccc(NC(=O)Nc4cc(C(F)(F)F)ccc4F)cc3)cc2[nH]1	8.97
CCc1cccc(CC)c1/C=C/c1cncc(C(=O)NC)c1	0.49
CS(=O)(=O)CCNCc1cc(-c2cc3c(Nc4ccc(OCc5cccc(F)c5)c(Cl)c4)ncnc3s2)cs1	-0.39
O=C(Nc1n[nH]c2cc(-c3ccccc3)ccc12)C1CC1	-0.2
NS(=O)(=O)c1ccc(N/N=C2\C(=O)Nc3ccc(-c4cnco4)cc32)cc1	-0.18
Fc1ccc(-c2ncn(CCCN3CCOCC3)c2-c2ccncc2)cc1	-0.76
NC(=O)Cc1ccccc1Oc1nccc(-c2c(-c3ccc(F)cc3)ncn2C2CCNCC2)n1	0.09
O=C(Nc1n[nH]c2nc(-c3ccco3)ccc12)C1CC1	4.26
Cc1nnc(-c2ccc(C)c(-c3ccc(C(=O)NCc4ccc(Cl)cc4)cc3)c2)o1	-0.7

====

- Assayed system: MAP kinase-activated protein kinase 2 (Homo sapiens);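 note: values are mean inhibition from the GSK PKIS screen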
- Study conditions: at 1 µM

Structure as smiles	inhibition [%]
Fc1ccc(-c2c(-c3ccncc3)nc3n2CCS3)cc1	0.36
COc1cccc(/C=N/Nc2ncnc3c2cnn3-c2cccc(OC)c2)c1	2.31
C[C@@H](Oc1cc(-n2cnc3ccc(OC4CCN(C)CC4)cc32)sc1C(N)=O)c1ccccc1Cl	2.41
CCc1nccc2c1nc(-c1nonc1N)n2CC	-0.34
CN(C)c1ccc2c(c1)/C(=C/Nc1ccc(S(N)(=O)=O)cc1)C(=O)N2	1.33
CN(C)CCCNc1nccc(-c2c(-c3ccc(F)cc3)nn3cc(C(F)(F)F)ccc23)n1	0.05
FC(F)(F)c1cccc(Nc2nccc(-c3cnn4nc(-c5ccccc5)ccc34)n2)c1	-0.44
c1ccc(Oc2ccc(Nc3ncc(-c4ccccc4)o3)cc2)cc1	0.09
CCS(=O)(=O)c1ccc(OC)c(Nc2ncc(-c3cccc(-c4ccccc4F)c3)o2)c1	-0.23
Fc1ccc(-c2ncn(C3CCNCC3)c2-c2ccnc(Oc3ccc(Oc4ccccc4)cc3)n2)cc1	7.84
CCc1ccc(Oc2nccc(-c3c(-c4ccc(F)cc4)ncn3C3CCNCC3)n2)cc1	3.67
C#Cc1cccc(Nc2ncnc3ccc(OCCCCNCCS(C)(=O)=O)cc23)c1	1.98
Fc1ccc(-c2ncn(C3CCNCC3)c2-c2ccnc(Oc3ccc(F)c(F)c3)n2)cc1	0.66
O=C1Nc2ccccc2/C1=C/Nc1ccc(-n2cncn2)cc1	2.54
C/C(Nc1ccc(S(N)(=O)=O)cc1)=C1/C(=O)Nc2ccccc21	-0.57
CN1CCN(CCCNc2nc3ccc(Oc4ccc(NC(=O)Nc5cc(C(F)(F)F)ccc5F)cc4)cc3[nH]2)CC1	-0.49
C[C@@H](Oc1cc(-n2cnc3ccc(OCC4CCN(C)CC4)cc32)sc1C(N)=O)c1ccccc1Cl	4.06
COc1cc2ncn(-c3cc(OCc4ccccc4C(F)(F)F)c(C(C)=O)s3)c2cc1OC	0.77
COc1ccc(C2=C(N3CCc4ccccc43)C(=O)NC2=O)cc1	1.74
COc1cc2ncn(-c3cc(OCCc4ccccc4)c(C(N)=O)s3)c2cc1OC	1.03

====

- Assayed system: Mitogen-activated protein kinase 13 (Homo sapiens);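 note: mean inhibition of p38delta, screened as part of the GSK PKIS kinase inhibitor set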
- Sequence (whole entry): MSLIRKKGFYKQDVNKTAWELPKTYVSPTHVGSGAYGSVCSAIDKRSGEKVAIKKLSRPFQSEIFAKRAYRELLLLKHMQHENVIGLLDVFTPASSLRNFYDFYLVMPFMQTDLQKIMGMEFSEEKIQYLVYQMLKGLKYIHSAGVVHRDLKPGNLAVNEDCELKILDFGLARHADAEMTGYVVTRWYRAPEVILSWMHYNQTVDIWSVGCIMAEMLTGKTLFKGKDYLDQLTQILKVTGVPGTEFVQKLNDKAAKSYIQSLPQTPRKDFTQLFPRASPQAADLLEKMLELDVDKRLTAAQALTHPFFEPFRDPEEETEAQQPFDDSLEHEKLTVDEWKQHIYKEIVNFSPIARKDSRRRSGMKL
- Study conditions: at 1 µM
The entries below come with measured inhibition values attached.

Structure as smiles	inhibition / %
O=C1Nc2ccccc2/C1=C/Nc1ccc(-n2cncn2)cc1	5.56
NS(=O)(=O)c1ccc(Nc2cc(-c3ccc(O)c(F)c3)n[nH]2)cc1	-4.19
CCC(=O)Nc1ccc(C)c(-c2ccc(C(=O)NCC3CC3)cc2)c1	3.22
Cc1ccc(C(=O)NC2CCC2)cc1-c1ccc(C(=O)NCC2CC2)cc1	2.78
COc1ccc2ncn(-c3cc(O[C@H](C)c4ccccc4Cl)c(C(N)=O)s3)c2c1	4.31
CCc1cccc(CC)c1/C=C/c1cncc(C(=O)NC)c1	4.25
COc1ccc(C2=C(N3CCc4ccccc43)C(=O)NC2=O)cc1	3.67
O=C(Nc1ccc(Oc2ccc3[nH]c(NC(=O)c4ccccc4)nc3c2)cc1)Nc1cc(C(F)(F)F)ccc1F	3.87
COc1cc2ncn(-c3cc(OCc4ccccc4C(F)(F)F)c(C(C)=O)s3)c2cc1OC	2.04
CN(C)CCOc1ccc(-c2cc(-c3ccc4c(c3)CCC4=NO)c(-c3ccncc3)o2)cc1	-2.49
O=C1NC(=O)C(c2cccc(Cl)c2)=C1Nc1ccc(Cl)c(C(=O)O)c1	0.67
Cc1ccc(NC(=O)c2ccoc2)cc1-c1ccc(C(=O)NCC2CC2)cc1	0.81
COc1cc2ncn(-c3cc(OCc4cccs4)c(C(N)=O)s3)c2cc1OC	1.21
O=C(Nc1n[nH]c2nc(-c3ccco3)ccc12)C1CC1	1.37
CCS(=O)(=O)c1ccc(OC)c(Nc2ncc(-c3cccc(-c4ccccc4F)c3)o2)c1	-0.94
Fc1ccc(-c2c(-c3ccncc3)nc3n2CCS3)cc1	2.65
COc1cccc(-n2cnc3c(N/N=C/c4ccncc4)ncnc32)c1	-2.04
c1ccc(-c2n[nH]cc2-c2ccnc(-c3ccc(OCCN4CCOCC4)cc3)c2)nc1	-0.43
O=C(NCC1CC1)c1ccc(-c2cccc(C(=O)NC3CC3)c2)cc1	3.97
Clc1ccc(CNc2nccc(-c3cnn4ncccc34)n2)cc1	2.4
CCS(=O)(=O)c1ccc(OC)c(Nc2ncc(-c3ccccc3Cl)o2)c1	1.41

====

Here, each record is paired with measured inhibition data.
- Assayed system: Dual specificity mitogen-activated protein kinase kinase 1 (Homo sapiens);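 note: values reported are mean inhibition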
- Study conditions: at 1 µM

Structure as smiles	inhibition [%]
NC(=O)Cc1ccccc1Oc1nccc(-c2c(-c3ccc(F)cc3)ncn2C2CCNCC2)n1	2.53
CCS(=O)(=O)c1ccc(OC)c(Nc2ncc(-c3cccc(-c4ccccc4F)c3)o2)c1	-0.23
O=C(Nc1n[nH]c2nc(-c3ccc(O)cc3)c(Br)cc12)C1CC1	8.1
Clc1ccc(CNc2nccc(-c3cnn4ncccc34)n2)cc1	2.12
CN(C)c1ccc2c(c1)/C(=C/Nc1ccc(S(N)(=O)=O)cc1)C(=O)N2	6.25
CS(=O)(=O)CCNCc1ccc(-c2ccc3ncnc(Nc4ccc(OCc5ccccc5)c(Br)c4)c3c2)o1	1.78
O=C1Nc2ccccc2/C1=C/Nc1ccc(-n2cncn2)cc1	6.15
CCC(=O)Nc1ccc(C)c(-c2ccc(C(=O)NCC3CC3)cc2)c1	2.87
C#Cc1cccc(Nc2ncnc3ccc(OCCCCNCCS(C)(=O)=O)cc23)c1	4.96
COc1cc2ncn(-c3cc(OCc4cccs4)c(C(N)=O)s3)c2cc1OC	2.83

====

- Assayed system: Aurora kinase C (Homo sapiens);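 note: reported value is a mean inhibition of Aurora-C from the GSK PKIS screening panel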
- Sequence (whole entry): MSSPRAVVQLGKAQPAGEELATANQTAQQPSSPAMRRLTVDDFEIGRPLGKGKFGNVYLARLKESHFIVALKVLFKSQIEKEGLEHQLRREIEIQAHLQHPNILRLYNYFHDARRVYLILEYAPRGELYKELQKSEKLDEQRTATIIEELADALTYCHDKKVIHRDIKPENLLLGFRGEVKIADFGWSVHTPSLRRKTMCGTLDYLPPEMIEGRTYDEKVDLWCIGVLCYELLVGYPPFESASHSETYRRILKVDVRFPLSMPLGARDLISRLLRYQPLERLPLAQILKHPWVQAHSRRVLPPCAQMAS
- Study conditions: at 1 µM
In this section we review reported inhibition values for a set of compounds.

Compound	inhibition, %
COc1cc(Nc2ncc3c(C)nc(-c4cccc(Oc5ccccc5)c4)n3n2)cc(OC)c1OC	30.1
NC(=O)c1cc(-c2ccc(F)cc2)cc(-c2ccncc2)c1N	-4.53
CCc1ccc(Oc2nccc(-c3c(-c4ccc(F)cc4)ncn3C3CCNCC3)n2)cc1	3.88
COc1ccc2cc(-c3c(-c4ccncc4)nc(-c4ccc([S+](C)[O-])cc4C)n3C)ccc2c1 (centres undefined)	2.95
COC(=O)Nc1nc2ccc(Sc3ccc(NC(=O)Nc4cc(C(F)(F)F)ccc4F)cc3)cc2[nH]1	6.4
CS(=O)(=O)CCNCc1cc(-c2cc3c(Nc4ccc(OCc5cccc(F)c5)c(Cl)c4)ncnc3s2)cs1	8.71
COc1ccc2cc(-c3c(-c4ccncc4)nc(-c4ccc(S(C)(=O)=O)cc4C)n3C)ccc2c1	12.7
O=C1NC(=O)C(c2cccc(Cl)c2)=C1Nc1ccc(Cl)c(C(=O)O)c1	-0.75
NS(=O)(=O)c1ccc(N/N=C2\C(=O)Nc3ccc(-c4cnco4)cc32)cc1	11.5
